Measured Avg (Akt) of individual entries
# Tested on: HT29
# Assay text: Reverse Phase Protein Analysis (RPPA)
# Assay type: cell-based
# Experimental context: % change from DMSO (matched cell line)
Record the result as a number with its unit.

Some molecules with recorded Avg (Akt):
Cc1cnc(Nc2ccc(F)cc2Cl)nc1-c1c[nH]c(C(=O)N[C@H](CO)c2cccc(Cl)c2)c1 [Vx-11e]    −17.84%
O=C(Nc1ccc2[nH]nc(-c3ccncc3)c2c1)[C@@H]1CCN(CC(=O)N2CCN(c3ccc(-c4ncccn4)cc3)CC2)C1    −16.93%
CC(C)Nc1cc(-c2c[nH]c(C(=O)N[C@H](CO)c3cccc(Cl)c3)c2)c(Cl)cn1    −13.41%

Entry `Cn1nccc1Nc1nccc(-c2ccn([C@H](CO)c3ccc(Cl)c(F)c3)c(=O)c2)n1` has what Avg (Akt)?
−10.01%

----------
# System: dose-escalated A375 cells
# Assay text: Proliferation assay (Alamar Blue, 96 h) in dose-escalated A375 cell lines
# Assay type: cell-based, human
# Experimental context: Homo sapiens, A-375, read-out: Relative IC50, Month 1; Tram/523-escalated line
Recorded endpoint: pIC50
# pIC50: negative log10 of molar concentration; output just the value

# pIC50 lookup, item CC(C)(C)c1nc(-c2cccc(NS(=O)(=O)c3c(F)cccc3F)c2F)c(-c2ccnc(N)n2)s1 [Dabrafenib]
7.96

----------
# Assay text: Phase I study: pharmacokinetic analysis
# Type: in vivo, human
# Experimental context: human, plasma, oral, 900 mg, 900 mg BID; Day 1; read-out: Cmax ± SD
Recorded endpoint: Cmax (ng/mL)
Reply with just the number (in ng/mL).

Param item = CC(C)Nc1cc(-c2c[nH]c(C(=O)N[C@H](CO)c3cccc(Cl)c3)c2)c(Cl)cn1 [BVD-523] ; retrieve measured Cmax.
1430

----------
# Test system: dose-escalated A375 cells
# Assay text: Proliferation assay (Alamar Blue, 96 h) in dose-escalated A375 cell lines
# Assay type: cell-based, human
# Experimental context: Homo sapiens, A-375, read-out: Relative IC50, Month 3; Dab-escalated line
Recorded endpoint: IC50 (nM)
Report only the number, with the unit nM understood.

GET /values?readout=IC50&system=dose-escalated A375 cells&item= CC(C)(C)c1nc(-c2cccc(NS(=O)(=O)c3c(F)cccc3F)c2F)c(-c2ccnc(N)n2)s1 [Dabrafenib]
2.5

----------
# Tested on: HT29
# Assay text: Reverse Phase Protein Analysis (RPPA)
# Format: cell-based
# Experimental context: % change from DMSO (matched cell line)
Recorded endpoint: Avg (mTOR S2448) (%)
Write down the numeric answer in % and omit the unit.

Recorded results for 3 compounds are shown here.
CC(C)Nc1cc(-c2c[nH]c(C(=O)N[C@H](CO)c3cccc(Cl)c3)c2)c(Cl)cn1    −20.68
O=C(Nc1ccc2[nH]nc(-c3ccncc3)c2c1)[C@@H]1CCN(CC(=O)N2CCN(c3ccc(-c4ncccn4)cc3)CC2)C1    −22.65
Cc1cnc(Nc2ccc(F)cc2Cl)nc1-c1c[nH]c(C(=O)N[C@H](CO)c2cccc(Cl)c2)c1 [Vx-11e]    −13.94

# lookup: Avg (mTOR S2448) of `Cn1nccc1Nc1nccc(-c2ccn([C@H](CO)c3ccc(Cl)c(F)c3)c(=O)c2)n1`
−11.44

----------
# Assay text: Phase I study: pharmacokinetic analysis
# Format: in vivo, human
# Experimental context: human, plasma, oral, 40 mg, 40 mg BID; Day 1; read-out: AUC0-12
Recorded endpoint: AUC(0-t)
Reply with the number, then its unit.

Look up AUC(0-t): CC(C)Nc1cc(-c2c[nH]c(C(=O)N[C@H](CO)c3cccc(Cl)c3)c2)c(Cl)cn1 [BVD-523]
614 ng·h/mL

----------
// Avg(S6 Ribo Prot S235 236) lookup, one value per entry
# Tested on: AN3Ca
# Assay text: Reverse Phase Protein Analysis (RPPA)
# Assay type: cell-based
# Experimental context: % change from DMSO (matched cell line)
Your answer should be a plain number; it is taken to be in %.

Cn1nccc1Nc1nccc(-c2ccn([C@H](CO)c3ccc(Cl)c(F)c3)c(=O)c2)n1    −30.74
O=C(Nc1ccc2[nH]nc(-c3ccncc3)c2c1)[C@@H]1CCN(CC(=O)N2CCN(c3ccc(-c4ncccn4)cc3)CC2)C1    −61.99

// lookup Avg(S6 Ribo Prot S235 236) for `CC(C)Nc1cc(-c2c[nH]c(C(=O)N[C@H](CO)c3cccc(Cl)c3)c2)c(Cl)cn1`
−43.41

Fill in: Avg(S6 Ribo Prot S235 236) of Cc1cnc(Nc2ccc(F)cc2Cl)nc1-c1c[nH]c(C(=O)N[C@H](CO)c2cccc(Cl)c2)c1 [Vx-11e] is ___
−18.54

----------
# Assay text: Phase I study: pharmacokinetic analysis
# Type: in vivo, human
# Experimental context: human, plasma and urine, oral; n≥3; read-out: mean renal clearance values
Recorded endpoint: CL renal

Value lookup for CL renal; key = `CC(C)Nc1cc(-c2c[nH]c(C(=O)N[C@H](CO)c3cccc(Cl)c3)c2)c(Cl)cn1`
0.248 to 0.5 mL/min

----------
# Test system: A375
# Assay text: Reverse Phase Protein Analysis (RPPA)
# Assay type: cell-based, human
# Experimental context: % change from DMSO (matched cell line)
Recorded endpoint: Avg (mTOR S2481)

Solved cases (3 shown):
CC(C)Nc1cc(-c2c[nH]c(C(=O)N[C@H](CO)c3cccc(Cl)c3)c2)c(Cl)cn1 [BVD-523]    −3.36%
O=C(Nc1ccc2[nH]nc(-c3ccncc3)c2c1)[C@@H]1CCN(CC(=O)N2CCN(c3ccc(-c4ncccn4)cc3)CC2)C1 [SCH772984]    −15.82%
Cc1cnc(Nc2ccc(F)cc2Cl)nc1-c1c[nH]c(C(=O)N[C@H](CO)c2cccc(Cl)c2)c1 [Vx-11e]    −2.9%

Could you now look at the following compound, please?
Quick one: Avg (mTOR S2481) of Cn1nccc1Nc1nccc(-c2ccn([C@H](CO)c3ccc(Cl)c(F)c3)c(=O)c2)n1 [GDC-0994] ?
−19.37%

----------
# Tested on: AN3Ca
# Assay text: Reverse Phase Protein Analysis (RPPA)
# Format: cell-based
# Experimental context: % change from DMSO (matched cell line)
# Procedure: Control wells were treated with DMSO at 0.1% (v/v) for 6 hours prior to cell lysate generation. Samples were then analyzed using reverse-phase protein microarray technology (Theranostics Health). Cell lines with common alterations in BRAF and RAS were assayed: BRAF^V600E mutant lines A375, Colo205, and HT29; KRAS^G12C-mutant cell line MIAPACa-2; KRAS^G13D-mutant cell line HCT116; and AN3Ca with atypical HRAS^F82L mutation. […]
Recorded endpoint: Avg (Akt) (%)
Just the number in %, nothing appended.

Study these solved cases before continuing.
Cc1cnc(Nc2ccc(F)cc2Cl)nc1-c1c[nH]c(C(=O)N[C@H](CO)c2cccc(Cl)c2)c1 [Vx-11e]    −24.62
Cn1nccc1Nc1nccc(-c2ccn([C@H](CO)c3ccc(Cl)c(F)c3)c(=O)c2)n1    −26.04
CC(C)Nc1cc(-c2c[nH]c(C(=O)N[C@H](CO)c3cccc(Cl)c3)c2)c(Cl)cn1    −22.43

Give its Avg (Akt) value. Item: `O=C(Nc1ccc2[nH]nc(-c3ccncc3)c2c1)[C@@H]1CCN(CC(=O)N2CCN(c3ccc(-c4ncccn4)cc3)CC2)C1`
−16.35

----------
# Test system: AN3Ca
# Assay text: Reverse Phase Protein Analysis (RPPA)
# Assay type: cell-based
# Experimental context: % change from DMSO (matched cell line)
Recorded endpoint: Avg (mTOR S2448) (%)
Form entry: value (%) — number only.

Here are 3 compounds together with their reported answers.
Cc1cnc(Nc2ccc(F)cc2Cl)nc1-c1c[nH]c(C(=O)N[C@H](CO)c2cccc(Cl)c2)c1 [Vx-11e]    −2.37
Cn1nccc1Nc1nccc(-c2ccn([C@H](CO)c3ccc(Cl)c(F)c3)c(=O)c2)n1    −2.96
CC(C)Nc1cc(-c2c[nH]c(C(=O)N[C@H](CO)c3cccc(Cl)c3)c2)c(Cl)cn1    −10.79

Attention now turns to another entry.
GET /values?readout=Avg (mTOR S2448)&item= `O=C(Nc1ccc2[nH]nc(-c3ccncc3)c2c1)[C@@H]1CCN(CC(=O)N2CCN(c3ccc(-c4ncccn4)cc3)CC2)C1`
−4.84

----------
# Assay text: Phase I study: pharmacokinetic analysis
# Format: in vivo, human
# Experimental context: human, plasma, oral, 10 mg, 10 mg BID; Day 15; read-out: Cmax
Recorded endpoint: Cmax (ng/mL)
Answer in ng/mL, number only, no unit symbol.

GET /values?readout=Cmax&item= CC(C)Nc1cc(-c2c[nH]c(C(=O)N[C@H](CO)c3cccc(Cl)c3)c2)c(Cl)cn1 [BVD-523]
45.7

----------
# Assay text: Phase I study: pharmacokinetic analysis
# Format: in vivo, human
# Experimental context: human, plasma, oral, 750 mg, 750 mg BID; Day 15; read-out: Cmax ± SD
Recorded endpoint: Cmax

Looking for the measured Cmax of `CC(C)Nc1cc(-c2c[nH]c(C(=O)N[C@H](CO)c3cccc(Cl)c3)c2)c(Cl)cn1` , can you help?
2290 ng/mL
